Attribution: patent US12396964B2

# assay-comment: clinical
# experimental-setup: both sexes, human, in vivo, iv, maximum plasma concentration (Tmax)
Counter-ions that a name gives are not always drawn.
attribute-measured: Tmax

Data point: NC12CC3CC(CC(C3)C1)C2 [amantadine hydrochloride] ; Tmax = 3 to 4 h

----------
# assay-comment: clinical
# experimental-setup: both sexes, human, in vivo, iv, mean elimination half-life
Counter-ions that a name gives are not always drawn.
attribute-measured: half-life

Data point: NC12CC3CC(CC(C3)C1)C2 [amantadine hydrochloride] ; half-life = 11.5 to 14.5 h

----------
# assay-comment: clinical
# experimental-setup: both sexes, human, in vivo, iv, Tmax
Where a name gives a salt, the structure may show the parent alone.
attribute-measured: Tmax (h)
Your answer should be a plain number; it is taken to be in h.

Data point: NC12CC3CC(CC(C3)C1)C2 [amantadine hydrochloride] ; Tmax = 3

----------
# assay-comment: clinical
# experimental-setup: both sexes, human, in vivo, iv, half-life (T½)
Structures can show the parent of a compound that is named as a salt.
attribute-measured: half-life

Data point: NC12CC3CC(CC(C3)C1)C2 [amantadine hydrochloride] ; half-life = 11 to 15 h
